# Measured target: Peroxisome proliferator-activated receptor gamma (Homo sapiens, UniProt P37231)
# Sequence (P37231 whole entry): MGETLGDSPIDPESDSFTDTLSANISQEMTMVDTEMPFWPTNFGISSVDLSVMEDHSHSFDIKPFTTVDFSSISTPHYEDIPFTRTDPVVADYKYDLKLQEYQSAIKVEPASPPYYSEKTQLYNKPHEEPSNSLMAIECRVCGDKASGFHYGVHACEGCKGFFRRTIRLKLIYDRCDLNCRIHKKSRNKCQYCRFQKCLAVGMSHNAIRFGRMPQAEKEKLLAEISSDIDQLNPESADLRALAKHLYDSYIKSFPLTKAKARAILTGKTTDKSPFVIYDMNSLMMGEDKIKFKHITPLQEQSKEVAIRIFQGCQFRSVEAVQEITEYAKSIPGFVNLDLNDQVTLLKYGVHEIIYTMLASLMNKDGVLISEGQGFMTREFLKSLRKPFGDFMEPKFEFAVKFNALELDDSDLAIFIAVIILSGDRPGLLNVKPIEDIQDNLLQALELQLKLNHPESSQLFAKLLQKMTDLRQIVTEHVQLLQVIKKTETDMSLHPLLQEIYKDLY
# Assay procedure: Pharmacological In Vitro Assay
# Test conditions: pH 8.2; 4 °C
Property label: Ki

1) COC(=O)CCCC#CCC(O)c1cc2ccccc2nc1OCCCC(F)(F)F (centres undefined) : > 10 µM
2) CCCCCOc1nc2ccccc2cc1C(O)CC#CCCCC(=O)NCCO (centres undefined) : > 10 µM

Using the record for O=C(O)CCCC#CCC(O)c1cc2ccccc2nc1OCCCC(F)(F)F (centres undefined) , report its Ki.
> 10 µM

Using the record for CCCCCOc1nc2ccccc2cc1C(O)CC#CCCCC(=O)OC (centres undefined) , report its Ki.
> 10 µM

Using the record for CCCCCOc1nc2ccccc2cc1C(O)CC#CCOCC(=O)O (centres undefined) , report its Ki.
1.93 µM

Using the record for CCCCCCCCOc1nc2ccccc2cc1C(O)CC#CCCCC(=O)OC (centres undefined) , report its Ki.
> 10 µM

Using the record for CCCCCOc1nc2c(ccc3ccccc32)cc1C(O)CC#CCCCC(=O)OC (centres undefined) , report its Ki.
> 10 µM

Using the record for COc1nc2ccccc2cc1C(O)CC#CCOCC(=O)O (centres undefined) , report its Ki.
3.81 µM

Using the record for CCCCCCCCOc1nc2ccccc2cc1C(O)CC#CCCCC(=O)O (centres undefined) , report its Ki.
0.378 µM

Using the record for COc1nc2ccccc2cc1C(O)CC#CCCCC(=O)O (centres undefined) , report its Ki.
> 10 µM

Using the record for COCCCOc1nc2ccccc2cc1C(O)CC#CCCCC(=O)OC (centres undefined) , report its Ki.
> 10 µM

Using the record for CCCCCOc1nc2ccc(OC)cc2cc1C(O)CC#CCCCC(=O)O (centres undefined) , report its Ki.
0.583 µM

Using the record for COCCCOc1nc2ccccc2cc1C(O)CC#CCCCC(=O)O (centres undefined) , report its Ki.
> 10 µM

Using the record for CCCCCOc1nc2c(ccc3ccccc32)cc1C(O)CC#CCCCC(=O)O (centres undefined) , report its Ki.
> 10 µM
